# Assay info: Drug concentration in brain of Sprague-Dawley rat at 5.6 mg/kg, ip measured after 1 hr by LC-MS/MS analysis
# Type: ADME, organism-based
# Conditions: read-out: Ct
Test readout: concentration at 1 h (ng/mL)

INSERT INTO measurements (chem_smiles, test_readout, result_number) VALUES
  ('O=c1c(NCCc2cccc(Cl)c2)c(Nc2ccc(Cl)cc2)c1=O', 'concentration at 1 h', 93.8);

====

# Tgt: Cannabinoid receptor 1 (Mus musculus)
# Sequence (P47746 whole entry): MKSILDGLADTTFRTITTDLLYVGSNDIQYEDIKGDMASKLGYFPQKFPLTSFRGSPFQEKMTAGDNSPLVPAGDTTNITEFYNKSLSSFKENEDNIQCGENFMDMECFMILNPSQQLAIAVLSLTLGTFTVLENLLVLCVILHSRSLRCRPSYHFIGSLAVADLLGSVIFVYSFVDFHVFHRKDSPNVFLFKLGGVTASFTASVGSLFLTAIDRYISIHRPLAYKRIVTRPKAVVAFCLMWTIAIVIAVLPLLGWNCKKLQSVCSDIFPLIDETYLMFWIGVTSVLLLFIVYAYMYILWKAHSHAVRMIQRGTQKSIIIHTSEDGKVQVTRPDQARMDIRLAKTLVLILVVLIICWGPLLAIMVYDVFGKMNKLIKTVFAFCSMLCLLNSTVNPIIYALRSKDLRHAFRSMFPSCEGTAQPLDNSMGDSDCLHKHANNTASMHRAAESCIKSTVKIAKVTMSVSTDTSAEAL
# Assay info: Negative allosteric modulation of CD-1 mouse CB1 receptor extracted from cerebellum membrane in presence of [35S]GTP-gammaS
Test readout: IC50 (nM)

INSERT INTO measurements (chem_smiles, test_readout, result_number) VALUES
  ('CN(C)c1ccc(CCNc2c(Nc3ccc(Cl)cc3)c(=O)c2=O)cc1', 'IC50', 617),
  ('Cc1cccc(CCNc2c(Nc3ccc(Cl)cc3)c(=O)c2=O)c1', 'IC50', 912),
  ('O=c1c(NCCc2ccccc2F)c(Nc2ccc(Cl)cc2)c1=O', 'IC50', 5620),
  ('Cc1ccc(CCNc2c(Nc3ccc(Cl)cc3)c(=O)c2=O)cc1', 'IC50', 646),
  ('O=c1c(NCCc2cccc(Cl)c2)c(Nc2ccc(Cl)cc2)c1=O', 'IC50', 214);
